Target: Ubiquitin carboxyl-terminal hydrolase 1 (Homo sapiens) (UniProt O94782)
Sequence (O94782 whole entry, looked up): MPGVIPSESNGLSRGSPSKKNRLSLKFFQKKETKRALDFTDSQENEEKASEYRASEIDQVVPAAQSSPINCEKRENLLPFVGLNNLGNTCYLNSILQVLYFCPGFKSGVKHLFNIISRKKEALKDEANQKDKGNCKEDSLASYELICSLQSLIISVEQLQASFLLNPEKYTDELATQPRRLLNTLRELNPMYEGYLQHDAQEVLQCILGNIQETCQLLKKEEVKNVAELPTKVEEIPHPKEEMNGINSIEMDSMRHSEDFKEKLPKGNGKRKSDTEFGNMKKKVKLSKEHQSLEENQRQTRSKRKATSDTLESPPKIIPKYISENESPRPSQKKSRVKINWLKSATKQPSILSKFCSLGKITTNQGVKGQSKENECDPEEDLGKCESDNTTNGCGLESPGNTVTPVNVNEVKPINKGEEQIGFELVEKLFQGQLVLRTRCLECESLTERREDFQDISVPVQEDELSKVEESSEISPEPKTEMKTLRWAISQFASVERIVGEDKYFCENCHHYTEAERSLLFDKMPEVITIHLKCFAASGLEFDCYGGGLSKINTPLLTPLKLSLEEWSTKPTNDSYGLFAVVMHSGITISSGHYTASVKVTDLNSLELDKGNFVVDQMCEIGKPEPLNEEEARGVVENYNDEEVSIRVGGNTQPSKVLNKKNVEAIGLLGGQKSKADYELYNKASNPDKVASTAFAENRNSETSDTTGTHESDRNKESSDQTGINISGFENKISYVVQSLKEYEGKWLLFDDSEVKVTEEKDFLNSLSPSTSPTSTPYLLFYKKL
Assay: Inhibitors of USP1/UAF1: Pilot qHTS (AID 504865); further: nearly all actives have a fitted effect of over 35% in size
Conditions: purified USP1/UAF1, Ub-rhodamine cleavage fluorescence; series mostly up to 114 µM
Records with an inconclusive call do not appear. Active and inactive are the calls of the source. The call rests on the fitted dose curve; in most records, active means well fitted inhibition curve with a large enough effect; inconclusive means small, poorly fitted or top-dose-only effect; inactive means flat fitted curve, though single readings scatter.
Pick one and only one: true (1) for active, false (0) for inactive

Sample answers from the record:
compound	system	label
O[C@@H]1[C@@H]2c3cc4c(cc3CN3CCC(=C[C@@H]1O)[C@H]23)OCO4	Ubiquitin carboxyl-terminal hydrolase 1 (Homo sapiens) (UniProt O94782)	false (0)
Cc1onc(-c2c(F)cccc2Cl)c1C(=O)NC1C(=O)N2C1SC(C)(C)C2C(=O)O (centres undefined)	Ubiquitin carboxyl-terminal hydrolase 1 (Homo sapiens) (UniProt O94782)	false (0)
CC1CN(c2c(F)c(N)c3c(=O)c(C(=O)O)cn(C4CC4)c3c2F)CC(C)N1 (centres undefined)	Ubiquitin carboxyl-terminal hydrolase 1 (Homo sapiens) (UniProt O94782)	false (0)
C=C(CC[C@@H](C)[C@H]1CCC2[C@]1(C)CC[C@]13C[C@@]14CCC(OC(=O)/C=C/c1ccc(O)c(OC)c1)C(C)(C)[C@@H]4CC[C@@]23C)C(C)C (some centres undefined)	Ubiquitin carboxyl-terminal hydrolase 1 (Homo sapiens) (UniProt O94782)	false (0)
O=C(NC[C@@H]1CCCCN1)c1cc(OCC(F)(F)F)ccc1OCC(F)(F)F	Ubiquitin carboxyl-terminal hydrolase 1 (Homo sapiens) (UniProt O94782)	false (0)
CCCCC/C(C=O)=C/c1ccccc1	Ubiquitin carboxyl-terminal hydrolase 1 (Homo sapiens) (UniProt O94782)	false (0)

Name the outcome recorded for CC(O)C1CCC2C3CCC4CC(O)CCC4(C)C3CCC12C (centres undefined) in the assay.
false (0)

Name the outcome recorded for "COc1cccc2c1C(=O)c1c(O)c3c(c(O)c1C2=O)C[C@](O)(C(C)=O)C[C@H]3O[C@@H]1C[C@H](N)[C@H](O)[C@H](C)O1" in the assay.
true (1)

Name the outcome recorded for COC(=O)C1C2CC3c4[nH]c5cc(OC)ccc5c4CCN3CC2CC(OC)C1OC (centres undefined) in the assay.
false (0)

Name the outcome recorded for C=CCn1c(=O)n(C2OC(CO)C(O)C2O)c2nc(N)[nH]c(=O)c21 (centres undefined) in the assay.
false (0)

Name the outcome recorded for CC[C@@H](C)C(N)C(=O)O (some centres undefined) in the assay.
false (0)

Name the outcome recorded for O=C(O)CC(O)CC(O)/C=C/c1c(C2CC2)nc2ccccc2c1-c1ccc(F)cc1 (centres undefined) in the assay.
false (0)

Name the outcome recorded for "CN(CCc1ccc(Cl)c(Cl)c1)CCN1CCCCCC1" in the assay.
false (0)

Name the outcome recorded for "OC[C@@H]1O[C@](CO)(O[C@H]2O[C@H](CO)[C@@H](O)[C@H](O)[C@H]2O)[C@H](O)[C@H]1O" in the assay.
false (0)

Name the outcome recorded for "O=C(O)c1ccc(N[C@@H]2OC[C@@H](O)[C@@H](O)[C@@H]2O)cc1" in the assay.
false (0)

Name the outcome recorded for CNC1C(O)C(OC2C(NC(=O)C(O)CN)CC(N)C(OC3OC(CN)C(O)C(O)C3O)C2O)OCC1(C)O (centres undefined) in the assay.
false (0)

Name the outcome recorded for "CO/N=C(/C(=O)N[C@@H]1C(=O)N2C(C(=O)O)=C(CSc3nnnn3C)CS[C@H]12)c1csc(N)n1" in the assay.
false (0)

Name the outcome recorded for "CC(C)C[C@@H](NC(=O)[C@@H](Cc1ccccc1)NC(=O)c1cnccn1)B(O)O" in the assay.
false (0)

Name the outcome recorded for CC(=O)OCC(=O)[C@@]1(O)CCC2C3C[C@H](C)C4=CC(=O)C=CC4(C)C3C(O)CC21C (some centres undefined) in the assay.
false (0)
